Target: ncNOS (Homo sapiens, UniProt P29475)
Sequence (P29475 whole entry): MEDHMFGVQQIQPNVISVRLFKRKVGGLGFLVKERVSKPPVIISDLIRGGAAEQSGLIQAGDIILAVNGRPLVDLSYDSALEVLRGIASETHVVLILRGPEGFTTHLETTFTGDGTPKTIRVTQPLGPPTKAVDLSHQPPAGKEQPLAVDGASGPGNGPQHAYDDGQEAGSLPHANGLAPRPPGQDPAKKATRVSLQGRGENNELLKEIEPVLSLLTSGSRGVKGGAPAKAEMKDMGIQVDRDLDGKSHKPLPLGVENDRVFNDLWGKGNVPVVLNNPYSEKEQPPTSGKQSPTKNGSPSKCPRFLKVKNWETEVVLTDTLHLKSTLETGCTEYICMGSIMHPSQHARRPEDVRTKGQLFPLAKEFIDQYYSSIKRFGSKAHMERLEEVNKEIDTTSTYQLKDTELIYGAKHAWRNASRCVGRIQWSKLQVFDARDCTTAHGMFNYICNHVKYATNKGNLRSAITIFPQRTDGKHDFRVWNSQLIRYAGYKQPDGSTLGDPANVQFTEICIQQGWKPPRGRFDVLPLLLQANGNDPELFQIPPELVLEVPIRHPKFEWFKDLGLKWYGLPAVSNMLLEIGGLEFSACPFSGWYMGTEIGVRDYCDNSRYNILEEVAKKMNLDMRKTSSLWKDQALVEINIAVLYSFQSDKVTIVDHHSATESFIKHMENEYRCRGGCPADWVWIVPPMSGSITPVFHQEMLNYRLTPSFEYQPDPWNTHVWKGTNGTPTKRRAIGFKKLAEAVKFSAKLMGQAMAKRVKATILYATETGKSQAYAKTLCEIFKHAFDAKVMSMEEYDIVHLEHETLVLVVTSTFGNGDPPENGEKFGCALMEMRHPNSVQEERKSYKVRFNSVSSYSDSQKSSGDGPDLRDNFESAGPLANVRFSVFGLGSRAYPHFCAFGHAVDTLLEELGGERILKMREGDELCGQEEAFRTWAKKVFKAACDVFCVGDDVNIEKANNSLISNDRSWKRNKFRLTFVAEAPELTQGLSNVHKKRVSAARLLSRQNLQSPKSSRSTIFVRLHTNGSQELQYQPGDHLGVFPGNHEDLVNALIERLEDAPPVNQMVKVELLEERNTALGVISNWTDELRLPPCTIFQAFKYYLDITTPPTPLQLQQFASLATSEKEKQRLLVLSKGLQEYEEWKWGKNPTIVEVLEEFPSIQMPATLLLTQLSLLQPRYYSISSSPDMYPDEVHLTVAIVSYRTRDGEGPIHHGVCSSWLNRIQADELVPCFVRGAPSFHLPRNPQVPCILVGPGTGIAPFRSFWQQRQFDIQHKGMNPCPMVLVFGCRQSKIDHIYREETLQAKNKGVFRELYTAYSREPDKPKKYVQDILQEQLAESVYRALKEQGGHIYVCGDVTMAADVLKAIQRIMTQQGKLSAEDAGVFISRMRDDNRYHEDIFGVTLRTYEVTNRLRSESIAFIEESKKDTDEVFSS
Experiment: biochemical
Conditions: Table 2; ncNOS; 1 μM L-Arg, pH 7.5, room temperature, 30 minutes; read-out: ncNOS (IC50)
Counter-ions that a name gives are not always drawn.
test.readout: IC50

Per the record, CSc1ccnc(N)c1 has IC50 of < 10 µM

Sample Cc1cc(N)nc(CCCN)c1 ; IC50 observed: < 1 µM

Recorded result, Cc1cc(N)ncc1Cl , IC50: < 50 µM

The compound listed as Cc1ccc(N)nc1C has a reported IC50 of < 10 µM

Kindly note the recorded IC50 for Cc1cc(N)nc2c1CCCC2 , which is < 10 µM

According to the records, this compound C=Cc1c(C)cc(N)nc1C displays IC50 of < 1 µM

Lab book: IC50 of COC(=O)c1cc(Cl)cc(N)n1 noted as > 50 µM

IC50 measured on COc1ccnc(N)c1 = < 10 µM

According to the records, this compound Cc1cc(N)nc(CCc2ccccc2)c1 displays IC50 of < 10 µM

Entry CC(=O)NCc1cnc(N)cc1C ; IC50 = > 50 µM

Item: Cc1cc(N)nc(CCCC(=O)O)c1 [Example 75, hydrochloride] | IC50: < 10 µM

// CCCCCc1cnc(N)cc1C : IC50 value = < 10 µM

Quick note, IC50 for Nc1nccc2c1CCCC2 [Example 65, 1-Amino-5,6,7,8-tetrahydroisoquinoline] landed at < 50 µM

Summary for this compound, CSc1c(C)ccnc1N : IC50 is < 10 µM

// Cc1cc(N)nc(CCCc2ccccc2)c1 : IC50 value = < 10 µM

Form: compound = COc1cccnc1N ; IC50 = < 50 µM

Short answer for C=CCCc1cc(C)cc(N)n1 : IC50 was < 1 µM

The compound identified as Cc1cc(N)ncc1CN [Example 45, dihydrochloride] registered its IC50 at < 50 µM

For reference, reported IC50 for Cc1cc(N)nc(CC[C@H](C)N)c1 stands at < 1 µM

Measured IC50 of Cc1cc(N)nc(CCCCC(=O)O)c1 [Example 74, hydrochloride] : < 10 µM

Record summary for Cc1cc(N)nc(CC(C)C)c1 : reported IC50 = < 1 µM

GET /value?item= CC(=O)NCCCCc1cc(C)cc(N)n1 &field=IC50 returns < 1 µM

Values compiled from patent US5972975A.
